# ASSAYED SYSTEM: the molecule itself
# ASSAY PROTOCOL: SEC; ENrich SEC 650 10 x 300 column, PBS as running buffer; peak positions compared with BioRad size exclusion standards; oligomeric state of the MBP fusion
Property: stoichiometry N; scope: individual proteins
# answer = number (no unit)

Here's what some known entries look like.
MBP-fused extracellular domain of human JAM-A (Gly27-Arg228) (domain or fragment, UniProt Q9Y624 27-228, looked up, JAM-A, human, extracellular domain, Gly27-Arg228 of Q9Y624; No protease site between MBP and the target in the final design (pET28a-MBP, NdeI/XhoI); also called junctional adhesion molecule A; source: E. coli SHuffle T7 Express, purified (amylose resin, size exclusion chromatography); not shown: MBP, N-terminal, kept) GSVTVHSSEPEVRIPENNPVKLSCAYSGFSSPRVEWKFDQGDTTRLVCYNNKITASYEDRVTFLPTGITFKSVTREDTGTYTCMVSEEGGNSYGEVKVKLIVLVPPSKPTVNIPSSATIGNRAVLTCSEQDGSPPSEYTWFKDGIVMPTNPKSTRAFSNSSYVLNPTTGELVFDPLSASDTGEYSCEARNGYGTPMTSNAVR: 2
MBP-fused extracellular domain of human JAM-B (Gly28-Ser238) (domain or fragment, UniProt P57087 28-238, looked up, JAM-B, human, extracellular domain, Gly28-Ser238 of P57087; No protease site between MBP and the target in the final design; Octamer by size exclusion; also called junctional adhesion molecule B; source: E. coli SHuffle T7 Express, purified (amylose resin, size exclusion chromatography); not shown: MBP, N-terminal, kept) GFSAPKDQQVVTAVEYQEAILACKTPKKTVSSRLEWKKLGRSVSFVYYQQTLQGDFKNRAEMIDFNIRIKNVTRSDAGKYRCEVSAPSEQGQNLEEDTVTLEVLVAPAVPSCEVPSSALSGTVVELRCQDKEGNPAPEYTWFKDGIRLLENPRLGSQSTNSSYTMNTKTGTLQFNTVSKLDTGEYSCEARNSVGYRRCPGKRMQVDDLNIS: 8
MBP-fused extracellular domain of human JAM-C (Gly30-Glu236) (domain or fragment, UniProt Q9BX67 30-236, looked up, JAM-C, human, extracellular domain, Gly30-Glu236 of Q9BX67; No protease site between MBP and the target in the final design; Tetramer by size exclusion; also called junctional adhesion molecule C; source: E. coli SHuffle T7 Express, purified (amylose resin, size exclusion chromatography); not shown: MBP, N-terminal, kept) GAVNLKSSNRTPVVQEFESVELSCIITDSQTSDPRIEWKKIQDEQTTYVFFDNKIQGDLAGRAEILGKTSLKIWNVTRRDSALYRCEVVARNDRKEIDEIVIELTVQVKPVTPVCRVPKAVPVGKMATLHCQESEGHPRPHYSWYRNDVPLPTDSRANPRFRNSSFHLNSETGTLVFTAVHKDDSGQYYCIASNDAGSARCEEQEME: 4
MBP-fused extracellular domain of human epithelial cadherin (Val102-Asp312) (domain or fragment) VIPPISCPENEKGPFPKNLVQIKSNKDKEGKVFYSITGQGADTPPVGVFIIERETGWLKVTEPLDRERIATYTLFSHAVSSNGNAVEDPMEILITVTDQNDNKPEFTQEVFKGSVMEGALPGTSVMEVTATDADDDVNTYNAAIAYTILSQDPELPDKNMFTINRNTGVISVVTTGLDRESFPTYTLVVQAADLQGEGLSTTATAVITVTD: 2

With those in mind, consider the next protein.
May I ask what stoichiometry N has been recorded for MBP-fused extracellular domain of human JAM4 (Gly34-Arg286) (domain or fragment, UniProt Q9NSI5 34-286, looked up, JAM4, human, extracellular domain, Gly34-Arg286 of Q9NSI5; No protease site between MBP and the target in the final design; Decamer by size exclusion; source: E. coli SHuffle T7 Express, purified (amylose resin, size exclusion chromatography); not shown: MBP, N-terminal, kept) GSGSGNEVIEGPQNARVLKGSQARFNCTVSQGWKLIMWALSDMVVLSVRPMEPIITNDRFTSQRYDQGGNFTSEMIIHNVEPSDSGNIRCSLQNSRLHGSAYLTVQVMGELFIPSVNLVVAENEPCEVTCLPSHWTRLPDISWELGLLVSHSSYYFVPEPSDLQSAVSILALTPQSNGTLTCVATWKSLKARKSATVNLTVIRCPQDTGGGINIPGVLSSLPSLGFSLPTWGKVGLGLAGTMLLTPTCTLTIR ?
10
